Test system: P388 leukemia ip, CD2F1 mice, survival T/C
Experiment: NCI In Vivo Anticancer Drug Screen. Data for tumor model P388 Leukemia (intraperitoneal) in CD2F1 (CDF1) mice
Settings: endpoint: median survival time; dose: 5.0 mg/kg/injection; schedule: Q01DX009 (ip); vehicle: saline with Tween-80
Toxic doses and inconclusive results are not listed. How the source made its calls: active means survival T/C of 150% or more; inactive means T/C below 125% in these data.
Select the matching outcome among yes (1) = active, no (0) = inactive

These recorded examples may help you get a feel for the data.
CCOC(=O)Nc1cc2c(c(N)n1)N=C(c1ccc(C(F)(F)F)cc1)CN2 no (0)
CCCCC(=O)N(c1ccc(Nc2c3ccccc3nc3cc([N+](=O)[O-])ccc23)cc1)S(C)(=O)=O yes (1)
O=c1cccc2c1c1cc[nH]c3ccc(=O)n2c31 no (0)

// query What did the test return for O=C1N[C@@H]2C(=C[C@H](O)[C@@H](O)[C@H]2O)c2cc3c(c(O)c21)OCO3 ?
// result no (0)

###

Test system: P388 leukemia ip, CD2F1 mice, survival T/C
Assay: NCI In Vivo Anticancer Drug Screen. Data for tumor model P388 Leukemia (intraperitoneal) in CD2F1 (CDF1) mice
Conditions: endpoint: median survival time; dose: 50.0 mg/kg/injection; schedule: Q04DX003 (ip); vehicle: Klucel (hydroxypropylcellulose) (HPC); higher = longer survival
Toxic doses and inconclusive results are not listed.
experimental_readout: T/C

compound	T/C
Cc1ccc(S(=O)(=O)Nn2nnc(-c3ccccc3)n2)cc1	98 % of control
COc1cc2c(c(OC)c1OC)CCC1C(=O)NN=C21 (stereo not given)	111 % of control
CCOC(=O)CC1(C)NC(=O)NC1=O (stereo not given)	108 % of control
O=c1cc(-c2ccccc2)oc2c(O)c(O)cc(O)c12	105 % of control

Here's the next entry for you.
// query Give me measured T/C, please, for this compound: O=C(NC1CCOC1=O)c1ccc(N=C=S)cc1 (stereo not given)
// result 107 % of control

###

Test system: P388 leukemia ip, CD2F1 mice, survival T/C
Test: NCI In Vivo Anticancer Drug Screen. Data for tumor model P388 Leukemia (intraperitoneal) in CD2F1 (CDF1) mice
Settings: endpoint: median survival time; dose: 3.12 mg/kg/injection; schedule: Q01DX009 (ip); vehicle: Klucel (hydroxypropylcellulose) (HPC); higher = longer survival
Inconclusive results and toxic doses are left out. Peptide text beside a SMILES is read from it. * marks the point of attachment. CH2Cl = ClC*
Readings of T/C for the listed compounds

// query For CC1(C)CC2C=C(C=O)C3(C=O)CC3(C)C2C1 (stereo not given) , write its T/C.
// result 111 % of control

// query Item CC(=O)NC(CC(C)C)C(=O)NC(Cc1ccccc1)C(=O)CCl (stereo not drawn) (Ac-Leu-Phe-CH2Cl; configuration not given here) : provide T/C
// result 103 % of control

// query Give the reported T/C for this compound. C[Si](OC(=O)N(CCCl)CCCl)(c1ccccc1)c1ccccc1
// result 103 % of control

// query Please report T/C for the following compound: C/C(=N\NC(N)=S)c1ccccc1
// result 106 % of control

// query Determine from records and report T/C for Cc1cc([N+](=O)[O-])cc(Cl)n1
// result 106 % of control

###

Parameter T/C: see the listing below.
System: P388 leukemia ip, CD2F1 mice, survival T/C
Assay: NCI In Vivo Anticancer Drug Screen. Data for tumor model P388 Leukemia (intraperitoneal) in CD2F1 (CDF1) mice
Settings: endpoint: median survival time; dose: 12.5 mg/kg/injection; schedule: Q01DX009 (ip); vehicle: distilled water + Tween-80; higher = longer survival
Inconclusive results and toxic doses are left out.

compound	experimental_readout	experimental_result
O=C1N=C2OC3(CCCCC3)OC(=O)N2C2(CCCCC2)O1	T/C	107 % of control
CC(O)CNC1=C(Cl)C(=O)c2ccccc2C1=O (centres undefined)	T/C	100 % of control
O=C(On1nnc2ccccc2c1=O)c1ccccc1	T/C	100 % of control

Please examine the following record next.
// query Provide only the value of recorded T/C for CSCCn1ccnc1[N+](=O)[O-]
// result 100 % of control
